# System: DU145
# assay summary: Antiproliferation assay (Alamar Blue), DU145
# Assay type: cell-based
# experimental context: Homo sapiens, DU-145; DU145, prostate cancer; read-out: EC50 of YL001
# Experimental: Cytotoxic activities of the compounds of interest were investigated with human cancer cell lines using the Alamar Blue assay. Cells (5 × 10^3 cells/well) were seeded into 96-well plates (Corning, 3603). […] After incubation, florescence was measured using a microplate reader (Tecan) at an excitation wavelength of 540 nm and emission of 590 nm. Each inhibitory concentration was measured in triplicate, and averaged data points ± SD are shown. […]
readout type: EC50 (µM)
Express your answer in µM, writing the number without its unit.

Challenge: Tell me the measured EC50 of Cc1ccc(-n2nnnc2/C(=C/N(C)C)C(=O)c2cccc(C(F)(F)F)c2)cc1 , please.
Response given: 26.5
